All values here come from ChEMBL document CHEMBL1201862.

Tested on: M14
Assay: NCI tumour cell line growth inhibition, 48 h
Active and inactive are the calls of the source. Cut-off read from the data, not from the text of the source: active = GI50 up to about 1.1 µM and inactive = higher.
Value kind: GI50

Please review the following examples before continuing.
• COC(=O)C1C(=O)O[C@@H](c2ccc(OC)cc2OC)C1C(=O)OC (stereo not given in full) = > 100 µM (inactive)
• CC(C)(C)OC(=O)NCC(c1c[nH]c2ccc(Br)cc12)c1c[nH]c2ccc(Br)cc12 = 3.56 µM (inactive)

Recorded GI50 of NC(=O)C(=O)N/N=C(\CC1(O)C(=O)Nc2ccccc21)c1ccc2ccccc2c1 (stereo not given) , please.
32.7 µM (inactive)

Recorded GI50 of `CC(C)=CCc1c(O)c(CC=C(C)C)c2oc(-c3ccc(O)cc3O)c(CC=C(C)C)c(=O)c2c1O` , please.
8.83 µM (inactive)

Recorded GI50 of `NNC(=S)N/N=C(\C(=O)Nc1cccc(O)c1)C1C(=O)NC(=S)NC1=O` , please.
> 100 µM (inactive)

Recorded GI50 of `Cc1ccc2c(c1C)C(=O)/C(=C/c1ccccc1C(=O)O)C2` , please.
> 100 µM (inactive)

Recorded GI50 of `CCOC(=O)CCc1c(C(=O)OCC)[nH]c(/C=C2/NC(=O)C(C)=C2CC)c1C` , please.
7.28 µM (inactive)

----------
Tested on: SNB-75
Test: NCI tumour cell line growth inhibition, 48 h
The source made the active and inactive calls. No stated cut-off is given here; in the data, active = GI50 up to about 1.1 µM and inactive = higher. Peptide text beside a SMILES is read from it. * marks the point of attachment. Boc = CC(C)(C)OC(=O)*; OBn = c1ccc(CO*)cc1
Value kind: GI50

Please review the following examples before continuing.
- CC1=C(C(=O)Nc2ccccc2C)C(c2ccc(Cl)c(Cl)c2)C(C(=O)Nc2ccccc2C)=C(C)N1: 36.5 µM (inactive)
- CC1C=C[C@H](Sc2ccccc2)CC[C@@]1(C)O (some centres undefined): 97.1 µM (inactive)
- CN1CCN(c2nc3c(c(=O)n(C)c(=O)n3C)n2C)CC1: > 100 µM (inactive)
- CCN1CCCc2cc3c(C(F)(F)F)cc(=O)oc3cc21: 42.5 µM (inactive)
- C[C@]12CC[C@H](O)C[C@H]1CC[C@@H]1[C@@H]2CC[C@]2(C)[C@@H](C3=CC(=O)OC3)CC[C@]12O: 0.299 µM (active)

Please look at the following molecule next.
Recorded GI50 of CC(NC(=O)C(NC(=O)OC(C)(C)C)C(C)C)C(=O)N1CCCC1C(=O)NCC(=O)NC(C(=O)NCC(=O)OCc1ccccc1)C(C)C (centres undefined) (Boc-VAPGVG-OBn; configuration not given here) , please.
71.3 µM (inactive)

----------
Test system: KM-20L2
Assay: NCI tumour cell line growth inhibition, 48 h
Active and inactive are the calls of the source. No stated cut-off is given here; in the data, active = GI50 up to about 1.1 µM and inactive = higher.
Give one outcome, nothing more. List: active, inactive

Completed entries (count: 5):
* C/C(=N\N=C(/S)N1CCCCCC1)c1cccc[n+]1[O-] | active
* COC(=O)C(/C(=N/N)C(=O)Nc1cc(Cl)ccc1Cl)c1nc2ccc([N+](=O)[O-])cc2nc1O (stereo unspecified) | inactive
* COc1ccc2c(c1)O[C@H]1c3ccc(O)cc3OC[C@@H]21 | inactive
* COC(=O)C1C(=O)O[C@@H](c2ccc(OC)cc2OC)C1C(=O)OC (stereo partly specified) | inactive
* CCOc1ccc2c(c1)[n+]([O-])c(-c1nc3ccccc3s1)c(N)[n+]2[O-] | inactive

Please turn your attention to the following entry.
Per the assay record, what outcome was assigned to CCCNC(=O)C(C)C1CCC2(C)C=CC(=O)C(C)=C2C1O (stereo unspecified) ?
inactive
